B1: Pistol ribozyme (parent)
chain: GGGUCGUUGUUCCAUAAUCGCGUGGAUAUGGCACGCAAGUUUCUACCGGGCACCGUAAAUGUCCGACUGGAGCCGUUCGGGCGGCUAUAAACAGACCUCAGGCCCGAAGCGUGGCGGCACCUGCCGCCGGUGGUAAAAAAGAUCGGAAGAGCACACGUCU

variants of: B1; assay: aptazyme ON/OFF ratio, guanine; higher = stronger switching; co-transcriptional cleavage with and without guanine

{"VARIANT_NAME": "U7C U8G G9U U10G U11A C12G C13U", "aptazyme ON/OFF ratio": 1.32}
{"VARIANT_NAME": "U7C U8G G9C U11G C13G", "aptazyme ON/OFF ratio": 1.03}
{"VARIANT_NAME": "U7A U8G G9U U10A U11G C12G C13G", "aptazyme ON/OFF ratio": 1.14}
{"VARIANT_NAME": "U7G U8A G9A U10G U11A C12U C13A", "aptazyme ON/OFF ratio": 1.18}
{"VARIANT_NAME": "U7G U8G G9C U10C U11C C13G", "aptazyme ON/OFF ratio": 1.04}
{"VARIANT_NAME": "U7A U8A G9A U10G U11C C13A", "aptazyme ON/OFF ratio": 1.08}
{"VARIANT_NAME": "U8G G9U U10A U11C C12A C13U", "aptazyme ON/OFF ratio": 1.16}
{"VARIANT_NAME": "G9C U10G U11C C12A C13U", "aptazyme ON/OFF ratio": 1.25}
{"VARIANT_NAME": "U8A G9U U10A U11A C13U", "aptazyme ON/OFF ratio": 1.28}
{"VARIANT_NAME": "U7A U10C U11A C12G C13U", "aptazyme ON/OFF ratio": 1.29}
{"VARIANT_NAME": "U8G G9C U10G U11G C12U C13A", "aptazyme ON/OFF ratio": 1.16}
{"VARIANT_NAME": "U7C U8G G9U U11G C13U", "aptazyme ON/OFF ratio": 1.21}
{"VARIANT_NAME": "U7C U8G G9C U10G U11G C13U", "aptazyme ON/OFF ratio": 1.11}
{"VARIANT_NAME": "U7A U8G G9A U10A U11G C12U C13G", "aptazyme ON/OFF ratio": 1.52}
{"VARIANT_NAME": "U7C G9C U10A U11G C12U", "aptazyme ON/OFF ratio": 1.05}
{"VARIANT_NAME": "U7G G9U U10A U11G C12G C13A", "aptazyme ON/OFF ratio": 1.04}
{"VARIANT_NAME": "U7G U8A G9A U10G U11A C12U", "aptazyme ON/OFF ratio": 0.997}
{"VARIANT_NAME": "U7A G9C U10C U11A C13A", "aptazyme ON/OFF ratio": 1.07}
{"VARIANT_NAME": "U7C U8A G9U U10A U11C C12G", "aptazyme ON/OFF ratio": 1.28}
{"VARIANT_NAME": "U7G U8C U10A U11A C12G C13G", "aptazyme ON/OFF ratio": 1.22}
{"VARIANT_NAME": "U7C U8A U10C U11G C12A C13A", "aptazyme ON/OFF ratio": 1.16}
{"VARIANT_NAME": "U7A G9C U10A U11G C13G", "aptazyme ON/OFF ratio": 1.06}
{"VARIANT_NAME": "U7A U8A G9A U10G U11G C13A", "aptazyme ON/OFF ratio": 1.19}
{"VARIANT_NAME": "G9A U10A U11A", "aptazyme ON/OFF ratio": 2.7}
{"VARIANT_NAME": "U7C U10C C12G", "aptazyme ON/OFF ratio": 1.28}
{"VARIANT_NAME": "U8G G9A U10A U11G C13A", "aptazyme ON/OFF ratio": 1.23}
{"VARIANT_NAME": "U7G U8C U10G U11C C12U C13G", "aptazyme ON/OFF ratio": 1.23}
{"VARIANT_NAME": "U7C U8C G9A U11G C12U", "aptazyme ON/OFF ratio": 1.34}
{"VARIANT_NAME": "U8G G9C U10G U11A C12U", "aptazyme ON/OFF ratio": 1.07}
{"VARIANT_NAME": "U8G G9C U10C U11G", "aptazyme ON/OFF ratio": 1.27}
{"VARIANT_NAME": "U7A U8A G9A U10C U11G C12A C13U", "aptazyme ON/OFF ratio": 1.12}
{"VARIANT_NAME": "U7G G9C U10A C12G C13G", "aptazyme ON/OFF ratio": 1.1}
{"VARIANT_NAME": "U7C U8G G9U U10A C12U C13G", "aptazyme ON/OFF ratio": 1.2}
{"VARIANT_NAME": "U7A U8C G9C U10G U11G C13G", "aptazyme ON/OFF ratio": 1.08}
{"VARIANT_NAME": "U8C G9C U10A U11G C13A", "aptazyme ON/OFF ratio": 1.2}
{"VARIANT_NAME": "U7G U10G U11G C12A", "aptazyme ON/OFF ratio": 1.08}
{"VARIANT_NAME": "U8C G9U U11C C12A C13G", "aptazyme ON/OFF ratio": 1.04}
{"VARIANT_NAME": "U7C U8A G9A U10C C12U C13G", "aptazyme ON/OFF ratio": 1.11}
{"VARIANT_NAME": "U7A U8C U10C U11C C12U C13U", "aptazyme ON/OFF ratio": 1.07}
{"VARIANT_NAME": "U7C U8A U10G C13G", "aptazyme ON/OFF ratio": 1.14}
{"VARIANT_NAME": "U7A U8A U10C U11A C13A", "aptazyme ON/OFF ratio": 1.13}
{"VARIANT_NAME": "U10A C12U C13U", "aptazyme ON/OFF ratio": 1.54}
{"VARIANT_NAME": "G9C U10C C12G C13A", "aptazyme ON/OFF ratio": 1.06}
{"VARIANT_NAME": "U7C U8G G9U U10G U11A C12G C13G", "aptazyme ON/OFF ratio": 1.3}
{"VARIANT_NAME": "U7G U8A G9C U10G C13U", "aptazyme ON/OFF ratio": 1.1}
{"VARIANT_NAME": "G9A U10A U11G C12U C13G", "aptazyme ON/OFF ratio": 1.28}
